Readings of log2 ratio of Biotin-Ahx-Ub-VS probe labelling for the listed compounds
Biological target: USP15 (UniProt Q9Y4E8)
Sequence (whole entry): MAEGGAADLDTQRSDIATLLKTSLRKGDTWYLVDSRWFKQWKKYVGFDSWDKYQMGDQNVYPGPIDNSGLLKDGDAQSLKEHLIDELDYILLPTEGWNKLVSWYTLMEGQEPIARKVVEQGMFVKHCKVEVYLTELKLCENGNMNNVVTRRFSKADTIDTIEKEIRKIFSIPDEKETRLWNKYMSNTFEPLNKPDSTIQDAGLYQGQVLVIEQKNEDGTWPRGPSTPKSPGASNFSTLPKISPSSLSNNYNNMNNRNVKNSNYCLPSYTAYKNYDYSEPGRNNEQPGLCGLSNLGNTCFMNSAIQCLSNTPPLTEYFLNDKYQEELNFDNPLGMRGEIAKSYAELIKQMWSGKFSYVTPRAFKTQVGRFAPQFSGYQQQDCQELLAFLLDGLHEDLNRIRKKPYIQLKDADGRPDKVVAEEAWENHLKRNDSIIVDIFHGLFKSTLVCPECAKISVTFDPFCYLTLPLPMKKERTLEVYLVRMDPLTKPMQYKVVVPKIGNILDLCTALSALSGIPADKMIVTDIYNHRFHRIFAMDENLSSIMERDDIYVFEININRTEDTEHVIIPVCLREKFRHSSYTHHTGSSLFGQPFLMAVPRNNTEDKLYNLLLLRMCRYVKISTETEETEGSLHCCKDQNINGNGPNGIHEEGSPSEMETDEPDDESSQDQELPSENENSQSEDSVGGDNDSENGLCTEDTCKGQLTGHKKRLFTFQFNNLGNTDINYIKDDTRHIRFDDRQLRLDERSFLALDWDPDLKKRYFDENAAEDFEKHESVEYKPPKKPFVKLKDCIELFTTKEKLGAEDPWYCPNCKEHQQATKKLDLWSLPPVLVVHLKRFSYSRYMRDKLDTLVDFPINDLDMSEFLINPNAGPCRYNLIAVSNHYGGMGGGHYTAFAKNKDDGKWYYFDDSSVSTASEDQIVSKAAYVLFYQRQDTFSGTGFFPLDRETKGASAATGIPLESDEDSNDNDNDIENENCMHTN
Experiment: log2 ratio of Biotin-Ahx-Ub-VS probe labelling (fragment/DMSO); higher = less target engagement (more negative = stronger competition), active = hit call of the paper (q ≤ 0.05, log2 ratio ≤ -1)
Conditions: compound concentration: 200 uM; treatment time: 3 h
Give only the figure.

Please review the following examples before continuing.
Compound | Experimental result
N#Cc1ccc(CNC(=O)CCl)cc1 | -0.145
O=C(CCl)NCc1ccc2c(c1)OCO2 | -0.0739
O=C(CCl)N1CC2(CCOCC2)C1 | -0.212
NC(=O)C1CCCCN1C(=O)CCl (centres undefined) | -0.0982
Cl.O=C(CCl)N1CC(c2ccc(Br)cn2)C1 | -0.409

Item `Cc1cnc2[nH]cc(CCNC(=O)CCl)c2c1` : provide log2 ratio of Biotin-Ahx-Ub-VS probe labelling
-0.336

Item `CS(=O)(=O)c1ccc(CNC(=O)CCl)cc1` : provide log2 ratio of Biotin-Ahx-Ub-VS probe labelling
-0.268

Item CC1CN(c2ccc(NC(=O)CCl)cc2)CC(C)O1 (centres undefined) : provide log2 ratio of Biotin-Ahx-Ub-VS probe labelling
-0.153

====

Target: USP4 (UniProt Q13107)
Sequence (whole entry): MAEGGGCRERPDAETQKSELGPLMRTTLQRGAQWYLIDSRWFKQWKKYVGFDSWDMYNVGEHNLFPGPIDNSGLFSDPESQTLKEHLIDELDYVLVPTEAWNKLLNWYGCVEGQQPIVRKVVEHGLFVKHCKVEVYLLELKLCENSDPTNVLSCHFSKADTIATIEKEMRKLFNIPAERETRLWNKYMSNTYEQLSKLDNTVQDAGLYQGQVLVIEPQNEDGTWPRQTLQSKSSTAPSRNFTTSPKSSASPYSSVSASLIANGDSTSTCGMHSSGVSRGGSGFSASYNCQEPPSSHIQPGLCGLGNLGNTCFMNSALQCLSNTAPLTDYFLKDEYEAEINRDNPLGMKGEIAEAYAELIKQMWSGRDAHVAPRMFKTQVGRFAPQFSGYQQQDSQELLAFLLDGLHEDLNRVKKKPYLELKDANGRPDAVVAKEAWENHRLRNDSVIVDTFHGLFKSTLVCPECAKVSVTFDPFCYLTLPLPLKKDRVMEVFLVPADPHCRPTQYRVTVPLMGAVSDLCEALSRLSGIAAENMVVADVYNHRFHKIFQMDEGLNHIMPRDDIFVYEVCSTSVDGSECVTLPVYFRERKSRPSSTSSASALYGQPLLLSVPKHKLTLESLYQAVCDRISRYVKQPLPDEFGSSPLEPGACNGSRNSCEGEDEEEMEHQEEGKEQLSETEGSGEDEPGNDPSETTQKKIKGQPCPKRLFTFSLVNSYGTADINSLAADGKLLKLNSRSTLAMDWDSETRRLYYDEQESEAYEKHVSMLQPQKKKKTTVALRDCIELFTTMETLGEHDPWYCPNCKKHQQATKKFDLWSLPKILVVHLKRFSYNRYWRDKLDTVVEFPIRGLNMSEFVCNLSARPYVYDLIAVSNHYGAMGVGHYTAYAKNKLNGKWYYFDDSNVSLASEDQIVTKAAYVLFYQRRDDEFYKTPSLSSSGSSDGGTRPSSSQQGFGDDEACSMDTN
Experiment: log2 ratio of Biotin-Ahx-Ub-VS probe labelling (fragment/DMSO); higher = less target engagement (more negative = stronger competition), active = hit call of the paper (q ≤ 0.05, log2 ratio ≤ -1)
Details: compound concentration: 200 uM; treatment time: 3 h
Readings of log2 ratio of Biotin-Ahx-Ub-VS probe labelling for the listed molecules
Give only the figure.

Molecule | Experimental result
O=C(CCl)Nc1cc(Cl)ccc1-n1cncn1 | -0.712
Cc1ncc2c(n1)CCN(C(=O)CCl)C2 | -0.35
CN(CCC(O)c1ccc(Br)cc1)C(=O)CCl (centres undefined) | -0.206
CC(C)n1nccc1NC(=O)CCl | -0.0708
CN(Cc1nc2ccccc2[nH]1)C(=O)CCl.Cl | -0.0216

Fill in log2 ratio of Biotin-Ahx-Ub-VS probe labelling for Cc1cc(C2CCCN2C(=O)CCl)nn1C.Cl (centres undefined) tested with USP4 (UniProt Q13107).
-0.154

Fill in log2 ratio of Biotin-Ahx-Ub-VS probe labelling for `CN(C)S(=O)(=O)c1ccccc1CNC(=O)CCl` tested with USP4 (UniProt Q13107).
-0.0523

Fill in log2 ratio of Biotin-Ahx-Ub-VS probe labelling for `Cl.O=C(CCl)NC1(c2ncccn2)CCC1` tested with USP4 (UniProt Q13107).
0.0299

Fill in log2 ratio of Biotin-Ahx-Ub-VS probe labelling for `CNC(=O)C1CCN(C(=O)CCl)CC1` tested with USP4 (UniProt Q13107).
-0.146

Fill in log2 ratio of Biotin-Ahx-Ub-VS probe labelling for `Cc1ccn2cc(CNC(=O)CCl)nc2c1.Cl` tested with USP4 (UniProt Q13107).
0.0609

Fill in log2 ratio of Biotin-Ahx-Ub-VS probe labelling for `O=C(CCl)N1CCC(c2noc3cc(F)ccc23)CC1` tested with USP4 (UniProt Q13107).
-0.235

Fill in log2 ratio of Biotin-Ahx-Ub-VS probe labelling for `O=C(CCl)NC1CCN(C(=O)C2CCCCC2)CC1` tested with USP4 (UniProt Q13107).
-0.0463

Fill in log2 ratio of Biotin-Ahx-Ub-VS probe labelling for `O=C(CCl)N1CCOC2(CCC2)CC1` tested with USP4 (UniProt Q13107).
-0.409

Fill in log2 ratio of Biotin-Ahx-Ub-VS probe labelling for `O=C(CCl)Nc1nnc(CC(F)(F)F)o1` tested with USP4 (UniProt Q13107).
-0.0637

Numbers sourced from the supplement of paper PMC11732987.
